Hey, just so you know, these numbers are from paper PMC4613240.

# IC50 values compiled below
- Test system: HepG2 (human hepatocellular carcinoma)
- Experiment notes: MTT cytotoxicity assay, HepG2
- Format: cell-based
- Study conditions: Homo sapiens, HepG2, 72 h, 72 h, maximal tested concentration 20.0 μM

- Compound: "C=C(C)[C@@H]1CC[C@]2(C(=O)OCc3nc(C)c(C)nc3C)CC[C@]3(C)C(CCC4[C@@]5(C)CC[C@H](O)C(C)(C)C5CC[C@]43C)C12 (stereo partly drawn)"
  IC50: "< 5.23 µM"
- Compound: "Cc1nc(C)c(COC(=O)[C@]23CCC(C)(C)CC2C2=CCC4[C@@]5(C)CC[C@H](OC(=O)c6nc(C)c(C)nc6C)C(C)(C)C5CC[C@@]4(C)[C@]2(C)CC3)nc1C (stereo partly drawn)"
  IC50: "12.1 µM"
- Compound: "Cc1nc(C)c(C)nc1C"
  IC50: "> 20 µM"
- Compound: "Cc1nc(C)c(C(=O)OC2CCC3(C)C(CCC4(C)C3CC=C3C5C(C)C(C)CCC5(C(=O)O)CCC34C)C2(C)C)nc1C (stereo not drawn)"
  IC50: "> 20 µM"
- Compound: "Cc1nc(C)c(COC(=O)[C@]23CCC(C)(C)CC2C2=CCC4[C@@]5(C)CC[C@H](O)C(C)(C)C5CC[C@@]4(C)[C@]2(C)CC3)nc1C (stereo partly drawn)"
  IC50: "14.8 µM"

# ---- query compound ----
Quick one: give measured IC50 for Cc1nc(C)c(COC(=O)[C@@]2(C)CC[C@]3(C)CC[C@]4(C)C(=CC(=O)C5[C@@]6(C)CC[C@H](O)C(C)(C)C6CC[C@]54C)C3C2)nc1C (stereo partly drawn)
> 20 µM

====

Measurement type: melting point

- Molecule: "Cc1nc(C)c(C(=O)OC2CCC3(C)C(CCC4(C)C3CC=C3C5C(C)C(C)CCC5(C(=O)OCc5ccccc5)CCC34C)C2(C)C)nc1C (stereo not shown) [Compound 2c]"
  melting point: "218.5 to 219.3 °C"
- Molecule: "Cc1nc(C)c(COC(=O)[C@]23CC[C@@H](C)[C@H](C)C2C2=CCC4[C@@]5(C)CC[C@H](O)C(C)(C)C5CC[C@@]4(C)[C@]2(C)CC3)nc1C (stereo partly shown) [Compound 2a]"
  melting point: "125.9 to 126.7 °C"
- Molecule: "C=C(C)C1CCC2(C(=O)OCc3ccccc3)CCC3(C)C(CCC4C5(C)CCC(OC(=O)c6nc(C)c(C)nc6C)C(C)(C)C5CCC43C)C12 (stereo not shown) [Compound 4c]"
  melting point: "162.1 to 162.8 °C"

# ---- query molecule ----
Quick one: give measured melting point for Cc1nc(C)c(COC(=O)[C@]23CCC(C)(C)CC2C2=CCC4[C@@]5(C)CC[C@H](OC(=O)c6nc(C)c(C)nc6C)C(C)(C)C5CC[C@@]4(C)[C@]2(C)CC3)nc1C (stereo partly shown) [Compound 1b]
193 to 193.7 °C

====

- Test system: Madin-Darby canine kidney cell line (MDCK)
- Experiment notes: MTT cytotoxicity (nephrotoxicity/selectivity) assay, MDCK
- Format: cell-based
- Study conditions: maximal tested concentration 20.0 μM, toxicity to MDCK kidney cells
Measurement type: pIC50
Reminder that pIC50 is minus the log10 of a molar concentration.

Quick one: give measured pIC50 for N.N.[Cl][Pt][Cl] [DDP, cisplatin, reference compound]
4.84
